Molecular target: Alkaline phosphatase, tissue-nonspecific isozyme (Homo sapiens, UniProt P05186)
Sequence (P05186 whole entry): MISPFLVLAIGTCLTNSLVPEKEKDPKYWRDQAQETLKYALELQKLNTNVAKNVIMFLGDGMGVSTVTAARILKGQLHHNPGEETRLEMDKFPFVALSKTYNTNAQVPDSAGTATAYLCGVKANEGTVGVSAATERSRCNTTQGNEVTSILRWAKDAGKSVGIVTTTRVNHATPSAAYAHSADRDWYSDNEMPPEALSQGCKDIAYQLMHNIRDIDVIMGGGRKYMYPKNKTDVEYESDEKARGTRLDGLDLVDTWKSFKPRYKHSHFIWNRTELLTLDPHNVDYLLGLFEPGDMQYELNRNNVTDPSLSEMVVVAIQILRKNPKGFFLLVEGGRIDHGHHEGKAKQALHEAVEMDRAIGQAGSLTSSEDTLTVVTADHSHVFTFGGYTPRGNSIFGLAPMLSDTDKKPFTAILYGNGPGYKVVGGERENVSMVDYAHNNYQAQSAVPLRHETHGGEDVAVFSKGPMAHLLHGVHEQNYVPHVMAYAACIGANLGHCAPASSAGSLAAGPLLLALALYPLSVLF
Assay: Inhibition of human TNAP expressed in COS7 cells preincubated for 5 to 7 mins followed by CDP-star substrate addition measured after 15 to 20 mins by luminescence assay
I'd appreciate it if you could supply pIC50 values for the items below.
One number for each entry, as −log10 of the molar value.

Below, 5 compounds whose answers are already recorded.
> print(dat)
                              given.smiles                                    system  quantity.measured  readout.value
1         CN(N)c1nn2c(=O)cc(C(F)(F)F)nc2s1  Alkaline phosphatase, tissue-nonspecific isozyme (Homo sapiens, UniProt P05186)              pIC50           5.69
2  Cc1ccc(-c2nn3c(=O)cc(C(F)(F)F)nc3s2)cc1  Alkaline phosphatase, tissue-nonspecific isozyme (Homo sapiens, UniProt P05186)              pIC50           5.97
3         CCCCNc1nn2c(=O)cc(C(F)(F)F)nc2s1  Alkaline phosphatase, tissue-nonspecific isozyme (Homo sapiens, UniProt P05186)              pIC50           6.06
4     O=c1cc(C(F)(F)F)nc2sc(-c3ccccc3)nn12  Alkaline phosphatase, tissue-nonspecific isozyme (Homo sapiens, UniProt P05186)              pIC50           6.68
5         C=CCNc1nn2c(=O)cc(C(F)(F)F)nc2s1  Alkaline phosphatase, tissue-nonspecific isozyme (Homo sapiens, UniProt P05186)              pIC50           6.54

In: Give the reported pIC50 for this compound. COc1cc(OC)cc(-c2nn3c(=O)cc(C(F)(F)F)nc3s2)c1
Out: 5.94
